Listed here: items and their measured IC50 at 72 h.
test_protocol: Cytotoxicity against human MCF-10A cells assessed as inhibition of cell proliferation incubated for 72 hrs by MTT assay
Assay type: toxicity, cell-based

compound | result
CN(C)CCN(Cc1ccc(Cl)cc1)c1ccccn1 [CHLOROPYRAMINE] | > 60 µM
COc1cc(/C=C/C(=O)N(CCN(C)C)c2ccccn2)ccc1O | > 60 µM

Next item in the queue.
Look at this compound and give its reported IC50 at 72 h. Cc1nc(C)c(/C=C/C(=O)N(CCN(C)C)c2ccccn2)nc1C
> 60 µM
